Test system: KHOSR2 cells
Measurement Protocol: Reversal of drug resistance, cytotoxicity assay in KHOSR2
Format: cell-based, human
Conditions: Homo sapiens, Doxorubicin, add NSC23925 0.5 μM; read-out: KHOSR2 IC50 of Doxorubicin
Measured Quantity: IC50

1. COc1ccc(-c2cc(C(O)C3CCCCN3)c3ccccc3n2)cc1 (stereo not shown)    1.21 µM

* * *

Tested on: SKOV-3TR cells
Measurement Protocol: Reversal of drug resistance, cytotoxicity (MTT) assay in SKOV-3TR
Type: cell-based
Conditions: Homo sapiens, SKOV3TR, Doxorubicin, add NSC23925 1 μM; read-out: SKOV-3TR IC50 of Doxorubicin
Description: FIGS. 1 (a-b) are graphs that depict the effects of NSC23925 on drug sensitivity in ovarian cancer cells; 1(a) depicts the effects of NSC23925 on sensitive (SKOV-3) and resistant (SKOV-3TR) cells; 1(b) depicts the effects of NSC23925 on sensitive (OVCAR8) and resistant (OVCAR8TR) cells. […] The relative sensitivity of each line to paclitaxel was determined by MTT assay, as described below in the Examples section, 6 days post treatment. […] Drug cytotoxicity was assessed in vitro using the MTT assay. […]
pIC50: −log10 of the molar value.
Measured Quantity: pIC50

1. COc1ccc(-c2cc(C(O)C3CCCCN3)c3ccccc3n2)cc1 (stereo not shown)    5.71
